- Tested on: IGROV1 ovarian
- measurement-protocol: NCI tumour cell line growth inhibition, 48 h
property-label: log10 of TGI (log10 of the value in µM)

- molecule: "Cc1nn(-c2nc3ccccc3[nH]2)c2c1C(c1ccc3c(c1)OCO3)CC(=O)N2 (stereo unspecified)"
  log10 of TGI: 0.66
- molecule: "OC(CNc1ccnc2cc(Cl)ccc12)CNC1CCCCC1 (stereo unspecified)"
  log10 of TGI: 1.39
- molecule: "COc1ccc(NS(=O)c2ccc(OC)cc2)cc1 (stereo unspecified)"
  log10 of TGI: 2.00
- molecule: "COc1cc(-c2oc(C=Nc3ccccc3)c([N+](=O)[O-])c2-c2ccc(O)c(OC)c2)ccc1O"
  log10 of TGI: 1.72
- molecule: "CCOC(=O)C#Cc1c(CC(=O)OCC)nnn1[C@H]1O[C@@H](CO)[C@@H]2OC(C)(C)O[C@@H]21"
  log10 of TGI: 1.56

* * *

Reported GI50 values follow for various compounds
- Tested on: BT-549 breast
- measurement-protocol: NCI tumour cell line growth inhibition, 48 h

- sample-smiles: "CCCCCCCCCCCC[n+]1ccc(C(N)=O)cc1"
  GI50: "1.93 µM"
- sample-smiles: "Clc1ccc2c(c1)-c1ccccc1C1=NCCN12"
  GI50: "2.41 µM"
- sample-smiles: "COc1ccc2nc(C)cc(Nc3ccccc3O)c2c1"
  GI50: "37.1 µM"
- sample-smiles: "O=C(N/N=C\\c1ccc(N(CCCl)CCCl)cc1Cl)c1cccnc1"
  GI50: "22.7 µM"

* * *

- System: HOP-62 NSCLC
- measurement-protocol: NCI tumour cell line growth inhibition, 48 h
property-label: TGI

- compound: "CN(C)c1ccc(N=Nc2cccc3ncccc23)cc1"
  property-label: "TGI"
  obs-value: "> 100 µM"
- compound: "Clc1ccccc1-c1nnc2c(-c3ccccc3)nc3ccccc3n12"
  property-label: "TGI"
  obs-value: "> 100 µM"
- compound: "NCCCCN(Cc1nc2ccccc2[nH]1)[C@H]1CCCc2cccnc21"
  property-label: "TGI"
  obs-value: "> 100 µM"
- compound: "Cc1ccc(S(=O)(=O)c2c3[nH]c4ccccc4nc3n3c2nc2ccccc23)cc1"
  property-label: "TGI"
  obs-value: "> 100 µM"
- compound: "O=C1C[C@H]2CC3(CC[C@H]2CN1)OCCO3"
  property-label: "TGI"
  obs-value: "> 100 µM"
- compound: "O=C(CN1CCOCC1)Nc1ccc2c(c1)C1Oc3ccccc3CC1CO2 (stereo not given)"
  property-label: "TGI"
  obs-value: "> 100 µM"
- compound: "C=CC(=O)Nc1cccc(C)c1Nc1ncc2cc(-c3c(Cl)c(OC)cc(OC)c3Cl)ccc2n1"
  property-label: "TGI"
  obs-value: "50 µM"
- compound: "CC(=O)OC[C@@H](OC(C)=O)[C@@H](OC(C)=O)[C@H]1OC[C@@H]2C[C@H]([C@H]1OC(C)=O)N(Cc1ccccc1)O2"
  property-label: "TGI"
  obs-value: "> 100 µM"
- compound: "CC[N+]1(C)CCC(O)(/C=C/c2ccc(Cl)cc2)C(C(=O)/C=C/c2ccc(Cl)cc2)C1 (stereo not given)"
  property-label: "TGI"
  obs-value: "39.3 µM"
- compound: "CCCCCCCSCC1C(=O)C23C(O)C1CCC2C12COC3(O)C(O)C1C(C)(C)CCC2O (stereo not given)"
  property-label: "TGI"
  obs-value: "37.9 µM"

* * *

Recorded measurements of TGI, one per entry
- Tested on: SK-MEL-2 melanoma
- measurement-protocol: NCI tumour cell line growth inhibition, 48 h

- compound: "Cc1cccc2c1C(=O)OC2(C)c1cccc2ccccc12 (stereo unspecified)"
  assay-system: "SK-MEL-2 melanoma"
  TGI: "> 100 µM"
- compound: "COc1ccc2c(c1)CC1c3c(cc4c(c3-2)OCO4)CCN1C (stereo unspecified)"
  assay-system: "SK-MEL-2 melanoma"
  TGI: "72.3 µM"
- compound: "CN1CCn2c(c(Sc3ccc(C(=O)NO)cc3)c3ccccc32)C1=O"
  assay-system: "SK-MEL-2 melanoma"
  TGI: "4.1 µM"
- compound: "CC1/C(=N/Nc2ccc([N+](=O)[O-])cc2)CC2C3(C)CCC2(C(C)C(=O)O)C(=O)C13 (stereo unspecified)"
  assay-system: "SK-MEL-2 melanoma"
  TGI: "> 100 µM"
- compound: "COc1cc(/C=C2\\CC3C4CC[C@H]5C[C@@H](O)CC[C@]5(C)C4CC[C@]3(C)C2=O)cc(OC)c1OC (stereo partly specified)"
  assay-system: "SK-MEL-2 melanoma"
  TGI: "33.7 µM"
- compound: "C=C(C)[C@H](O)C(O)CC(C)[C@@H]1CCC23CC12CCC1[C@@]2(C)CCC(OC(C)=O)C(C)(C)C2CC(OC2OC(COC(C)=O)C(O)C(O)C2O)[C@]13C (stereo partly specified)"
  assay-system: "SK-MEL-2 melanoma"
  TGI: "16.2 µM"
- compound: "CN(C)CCCNc1ccc2nnn3c4ccc(OC(=O)c5ccc([N+](=O)[O-])cc5)cc4c(=O)c1c23"
  assay-system: "SK-MEL-2 melanoma"
  TGI: "> 52.1 µM"
- compound: "C=CCCCCCC(O)C(O)C/C=C\\C/C=C\\CC (stereo unspecified)"
  assay-system: "SK-MEL-2 melanoma"
  TGI: "> 18.8 µM"
- compound: "c1ccc2c3c([nH]c2c1)C1(CCCCC1)c1c([nH]c2ccccc12)C31CCCCC1"
  assay-system: "SK-MEL-2 melanoma"
  TGI: "48.1 µM"
- compound: "O=C1NC(=NC2CCCCC2)C2(CCN(CCCC3(c4ccc(F)cc4)OCCO3)CC2)N1c1ccccc1"
  assay-system: "SK-MEL-2 melanoma"
  TGI: "30.2 µM"
- compound: "O=P1(O)c2ccccc2Nc2cc(C(F)(F)F)ccc21"
  assay-system: "SK-MEL-2 melanoma"
  TGI: "> 100 µM"
- compound: "O=S1c2ccccc2SCSc2ccccc21"
  assay-system: "SK-MEL-2 melanoma"
  TGI: "> 100 µM"
- compound: "O=C(OC(/C=C/c1ccccc1)P1(=O)N(Cc2ccccc2)[C@@H]2CCCC[C@H]2N1Cc1ccccc1)c1ccccc1 (stereo partly specified)"
  assay-system: "SK-MEL-2 melanoma"
  TGI: "5.67 µM"
- compound: "O=C(/C=C(\\O)c1ccc(Cl)cc1)C(=O)NN=C(c1ccccc1)c1ccccc1"
  assay-system: "SK-MEL-2 melanoma"
  TGI: "> 100 µM"
- compound: "CC(=O)c1cccc(NC(=O)C(=O)C(C(=O)c2ccccc2F)C2OC(=O)c3ccccc32)c1 (stereo unspecified)"
  assay-system: "SK-MEL-2 melanoma"
  TGI: "96.1 µM"
- compound: "O=CC1C[C@@H](N2C(=O)O[C@@H](c3ccccc3)[C@H]2c2ccccc2)[C@@H]1COCc1ccccc1 (stereo partly specified)"
  assay-system: "SK-MEL-2 melanoma"
  TGI: "30.8 µM"
- compound: "Nc1nc(Cl)cc(NCCCCCCCCCCCCNc2cc(Cl)nc(N)n2)n1"
  assay-system: "SK-MEL-2 melanoma"
  TGI: "> 100 µM"
- compound: "ClCc1ccc2ccc3ccc(CCl)nc3c2n1"
  assay-system: "SK-MEL-2 melanoma"
  TGI: "4.81 µM"
- compound: "COC(=O)[C@@]1(O)C[C@H]2O[C@]1(C)n1c3ccccc3c3c4c(c5c6ccccc6n2c5c31)C(=O)NC4"
  assay-system: "SK-MEL-2 melanoma"
  TGI: "1.61 µM"
- compound: "COC(=O)c1c(O)ccc2c1c1c(n2-c2ccc(OC)cc2)C(=O)c2ccccc2C1=O"
  assay-system: "SK-MEL-2 melanoma"
  TGI: "> 100 µM"
- compound: "CC12CC3CC(C1)CC(N=[N+]=[N-])(C3)C2"
  assay-system: "SK-MEL-2 melanoma"
  TGI: "> 100 µM"
- compound: "COc1ccc(NS(=O)c2ccc(OC)cc2)cc1 (stereo unspecified)"
  assay-system: "SK-MEL-2 melanoma"
  TGI: "83.6 µM"
- compound: "C=C1CC[C@@H]2[C@](C)(COC(C)=O)[C@H](OC(C)=O)CC[C@@]2(C)[C@@H]1C/C=C1/C(=O)OC[C@H]1OC(C)=O"
  assay-system: "SK-MEL-2 melanoma"
  TGI: "26.3 µM"
- compound: "Cc1ccc(CCCCCOc2ccc(C3=NCCO3)cc2)s1"
  assay-system: "SK-MEL-2 melanoma"
  TGI: "> 100 µM"
- compound: "COc1ccc(/C=C2\\CN(C)CC3C2=NC(=S)NC3c2ccc(OC)cc2)cc1 (stereo unspecified)"
  assay-system: "SK-MEL-2 melanoma"
  TGI: "> 64.8 µM"
- compound: "COc1cc(/C=C2/C(=O)NC(Cc3cc(OC)c(OC)c(C)c3OC)C(=O)N2Cc2ccccc2)c(OC)c(C)c1OC (stereo unspecified)"
  assay-system: "SK-MEL-2 melanoma"
  TGI: "66.8 µM"
- compound: "COc1cc(/C=C/C(=O)c2c(C)n([O-])c3ccc(Cl)cc3[n+]2=O)cc(OC)c1OC"
  assay-system: "SK-MEL-2 melanoma"
  TGI: "> 100 µM"
- compound: "N/C(COc1ccc(Cl)cc1)=N\\NC(=O)c1ccncc1"
  assay-system: "SK-MEL-2 melanoma"
  TGI: "> 100 µM"
- compound: "COc1cc([C@@H]2OC(=O)C3C2C(=O)O[C@H]3c2cc(OC)c(OC)c(OC)c2)cc(OC)c1OC (stereo partly specified)"
  assay-system: "SK-MEL-2 melanoma"
  TGI: "> 100 µM"
- compound: "CC1=NN(C(=O)c2ccc(Cl)cc2)C(=O)/C1=C/c1ccc(O)cc1"
  assay-system: "SK-MEL-2 melanoma"
  TGI: "> 100 µM"
- compound: "CCCCCCCCCC1CC(=O)NCC(=O)NC(C(C)C)C(=O)NC(CC(C)C)C(=O)NC(C)C(=O)NC(C(C)C)C(=O)O1 (stereo unspecified)"
  assay-system: "SK-MEL-2 melanoma"
  TGI: "> 65.8 µM"
- compound: "CCOC(=O)C1=NN(c2ccccc2)C2=CC(C)=NN(C)C(=S)N21"
  assay-system: "SK-MEL-2 melanoma"
  TGI: "> 100 µM"
- compound: "Clc1ccc(SCCCCCCCCCCSc2ccc(Cl)cc2)cc1"
  assay-system: "SK-MEL-2 melanoma"
  TGI: "> 70.4 µM"
- compound: "CC(C)C[C@@H]1NC(=O)[C@@H]2CCCN2C(=O)[C@@H]2CCCN2C(=O)[C@H](CC(C)C)NC(=O)[C@H](CO)NC(=O)[C@H](CCCCN)NC(=O)[C@H]([C@H](C)O)NC(=O)[C@@H]2CCCC[C@@H](NC1=O)C(=O)N[C@@H](Cc1ccccc1)C(=O)N1CCC[C@H]1C(=O)N[C@@H](CC(=O)O)C(=O)NCC(=O)N[C@@H](CCCN=C(N)N)C(=O)N2"
  assay-system: "SK-MEL-2 melanoma"
  TGI: "> 50 µM"
- compound: "c1ccc(SC(CCCCOC2CCCCO2)Sc2ccccc2)cc1 (stereo unspecified)"
  assay-system: "SK-MEL-2 melanoma"
  TGI: "> 100 µM"
- compound: "CC(C)(c1ccc(OC#N)cc1)c1ccc(OC#N)cc1"
  assay-system: "SK-MEL-2 melanoma"
  TGI: "> 100 µM"
